# study.target: MAL^TIR (Homo sapiens, UniProt P58753)
# Construct: MAL (residues 79–221); 6xHis; made in house; host or cells: E. coli BL21 (DE3)
# Sequence (P58753 79-221): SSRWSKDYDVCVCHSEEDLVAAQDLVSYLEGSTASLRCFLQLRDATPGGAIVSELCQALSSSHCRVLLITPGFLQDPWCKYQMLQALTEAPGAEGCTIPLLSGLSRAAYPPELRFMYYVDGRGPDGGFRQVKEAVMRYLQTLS
# assay.overview: T‐Surf phage library (P8 and P3) selection against MAL^TIR, four rounds, NGS read counts
# Assay type: binding
# conditions.used: P8_MAL: rank by count before grouping
# Method: T‐Surf libraries were screened against the immobilized TIR domains of two major human TLR adaptor proteins, MAL^TIR and MyD88^TIR, allowing cross‐species selection of TIR‐binding motifs with 190 946 TIR‐derived peptides in a single binding assay (Scheme 1). Enriched phage pools from the fourth round of selection were analyzed using NGS after barcoding the peptide‐coding regions of the phage pools. […]
The label true (1) is reserved for Rank (before) strictly under 2000; false (0) covers values equal to or above it.

Report whether reported Rank (before) is lower than 2000 (strictly) for AFLCTQLNNVTDTPTL true (1)

Subsequent entry: RNFVAYLVQALAKKGI false (0)

Subsequent entry: LFFWESLKNVLGSDGR false (0)

Subsequent entry: QLIQQWMNCTCTSCI false (0)

Subsequent entry: AFLYTFLKNLMRKPTF true (1)

Subsequent entry: YFLHFLLFSRLDTVYI true (1)

Subsequent entry: WFYERLLNLILRDTKV true (1)

Subsequent entry: AFLYTFLNNLIHPTTF true (1)

Subsequent entry: AFFWAQLKSVLGNPPV true (1)

Subsequent entry: TFLGHLYSALVHAGIH false (0)

Subsequent entry: RNFVADLYQALANKGI false (0)

Subsequent entry: RNLVAYLFQALETKGI false (0)

Subsequent entry: PFLGHLSNALVQAGIH false (0)

Subsequent entry: AFLWAYLNSVTHPPTF true (1)

Subsequent entry: LLFWGSLKQLLRSDGR false (0)

Subsequent entry: TFLGHLYNALLQPGIH false (0)
